Molecular target: LCK (Homo sapiens, UniProt P06239)
Sequence (P06239 whole entry): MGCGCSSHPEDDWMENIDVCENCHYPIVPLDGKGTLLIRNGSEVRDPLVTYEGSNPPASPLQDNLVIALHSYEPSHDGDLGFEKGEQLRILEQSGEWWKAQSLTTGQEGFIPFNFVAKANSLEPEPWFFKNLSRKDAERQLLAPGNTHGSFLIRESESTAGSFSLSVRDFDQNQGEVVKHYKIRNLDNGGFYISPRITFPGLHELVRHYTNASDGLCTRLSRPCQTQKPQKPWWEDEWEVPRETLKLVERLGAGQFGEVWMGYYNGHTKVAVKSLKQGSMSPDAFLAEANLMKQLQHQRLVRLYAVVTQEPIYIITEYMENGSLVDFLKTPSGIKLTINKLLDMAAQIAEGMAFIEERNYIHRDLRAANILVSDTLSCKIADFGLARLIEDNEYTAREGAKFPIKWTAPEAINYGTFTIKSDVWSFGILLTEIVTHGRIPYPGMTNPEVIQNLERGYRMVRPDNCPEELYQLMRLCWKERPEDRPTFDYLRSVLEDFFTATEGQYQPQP
Test: Inhibition of a panel of kinases, in vitro HotSpot kinase assay: LCK
Type: biochemical
Conditions: D-compounds panel data; 1 μM ATP; read-out: IC50 LCK
pIC50: −log10 of the molar value.
METRIC: pIC50

{"columns": ["COMPOUND", "ASSAY_TARGET", "METRIC", "REPORTED_MEASUREMENT"],
 "data": [
  ["Cc1nn(C)cc1Nc1nc(N2CCC[C@@H](NC(=O)c3ccc(C4CC4)cc3)[C@H]2C)cnc1C(N)=O [Example D-272]", "LCK (Homo sapiens, UniProt P06239)", "pIC50", "< 5.00"],
  ["CN1CCN(C(=O)c2ccc(Nc3nc(N[C@H]4CC[C@H](NC(=O)N(C)C)CC4)cnc3C(N)=O)cc2)CC1 [Example D-69]", "LCK (Homo sapiens, UniProt P06239)", "pIC50", "7.00 to 8.00"],
  ["CN(C)C(=O)N[C@@H]1CCCN(c2cnc(C(N)=O)c(Nc3ccc(C4(C)CCN(C5CCCC5)CC4)cc3)n2)[C@@H]1CO [Example D-58]", "LCK (Homo sapiens, UniProt P06239)", "pIC50", "6.00 to 7.00"],
  ["Cc1cc2cc(C(=O)N[C@@H]3CCCN(c4cnc(C(N)=O)c(Nc5cnn(C)c5)n4)[C@@H]3C)ccc2o1 [Example D-246]", "LCK (Homo sapiens, UniProt P06239)", "pIC50", "7.00 to 8.00"],
  ["C[C@@H]1[C@H](NC(=O)Nc2cccnc2)CCCN1c1cnc(C(N)=O)c(Nc2ccc(C3(C)CCN(C4CCCC4)CC3)cc2)n1 [Example D-9]", "LCK (Homo sapiens, UniProt P06239)", "pIC50", "> 8.00"],
  ["C[C@@H]1[C@H](NC(=O)c2ccc(C(O)(C(F)(F)F)C(F)(F)F)cc2)CCCN1c1cnc(C(N)=O)c(Nc2cnn(C)c2)n1 [Example D-240]", "LCK (Homo sapiens, UniProt P06239)", "pIC50", "6.00 to 7.00"]
]}
